# Test system: NCI-H196
# test summary: sensitivity of SCLC cell line to ABT-737
# Format: cell-based
# condition details: Homo sapiens, read-out: sensitivity to ABT-737 (EC50 class)
pEC50: −log10 of the molar value.
readout kind: pEC50

Quick check: pEC50 on NCI-H196, item CN(C)CC[C@H](CSc1ccccc1)Nc1ccc(S(=O)(=O)NC(=O)c2ccc(N3CCN(Cc4ccccc4-c4ccc(Cl)cc4)CC3)cc2)cc1[N+](=O)[O-] ?
< 5.00

====

# System: NCI-H1963
# test summary: sensitivity of SCLC cell line to ABT-737
# Type: cell-based
# condition details: Homo sapiens, read-out: sensitivity to ABT-737 (EC50 class)
pEC50: −log10 of the molar value.
readout kind: pEC50

What does the data say about its pEC50? Entry: CN(C)CC[C@H](CSc1ccccc1)Nc1ccc(S(=O)(=O)NC(=O)c2ccc(N3CCN(Cc4ccccc4-c4ccc(Cl)cc4)CC3)cc2)cc1[N+](=O)[O-]
> 6.00

====

# Test system: NCI-H187
# test summary: sensitivity of SCLC cell line to ABT-737
# Format: cell-based
# condition details: Homo sapiens, read-out: sensitivity to ABT-737 (EC50 class)
pEC50: −log10 of the molar value.
readout kind: pEC50

API: value(readout= pEC50, system= NCI-H187, query= CN(C)CC[C@H](CSc1ccccc1)Nc1ccc(S(=O)(=O)NC(=O)c2ccc(N3CCN(Cc4ccccc4-c4ccc(Cl)cc4)CC3)cc2)cc1[N+](=O)[O-] )
> 6.00
